Data provenance: PubChem BioAssay (NCI)

Tested on: CAKI-1 renal
measurement protocol: NCI tumour cell line growth inhibition, 48 h; in the data active = GI50 below about 0.43 µM; inactive = the rest
Select the matching outcome among label 1 for active, label 0 for inactive

Exam item: Kindly provide the recorded test outcome for the following molecule: CC(C)NCCCNC1=C(Cl)C(=O)c2ccccc2C1=O
Marked response: label 0

Exam item: Kindly provide the recorded test outcome for the following molecule: O=c1cc(-c2ccccc2)oc2cc(OCc3cn(Cc4ccc(F)cc4)nn3)cc(O)c12
Marked response: label 0

Exam item: Kindly provide the recorded test outcome for the following molecule: CN1CCN(c2ccc(NC3=C(Cl)C(=O)c4ncccc4C3=O)cc2C(F)(F)F)CC1
Marked response: label 0

Exam item: Kindly provide the recorded test outcome for the following molecule: CO/N=C(\COc1ccc2c(=O)cc(-c3ccccc3)oc2c1)c1ccc(OC)cc1
Marked response: label 0

Exam item: Kindly provide the recorded test outcome for the following molecule: c1ccc(CN2CCC3(CC2)ONC2=NCCN23)cc1
Marked response: label 0

Exam item: Kindly provide the recorded test outcome for the following molecule: CCOc1ccc2c(-c3ccnc(Nc4cccc(C(F)(F)F)c4)n3)cnn2n1
Marked response: label 0

Exam item: Kindly provide the recorded test outcome for the following molecule: CC(=O)OC1CC(C)c2c1ncnc2N1CCN(C(=O)OC(C)(C)C)CC1 (configuration not stated)
Marked response: label 0

Exam item: Kindly provide the recorded test outcome for the following molecule: COc1cc2c(cc1OCCN1C(=O)c3cccc4cccc(c34)C1=O)N=C[C@@H]1CCCN1C2=O
Marked response: label 0

Exam item: Kindly provide the recorded test outcome for the following molecule: Cn1c(-c2c(N)n(Cc3ccc(Cl)cc3)c3nc(C#N)c(C#N)nc23)nc2ccccc21
Marked response: label 0

Exam item: Kindly provide the recorded test outcome for the following molecule: CN([N-]C(=O)CC(=O)[N-]N(C)C(=S)c1ccccc1)C(=S)c1ccccc1.[Cu+2]
Marked response: label 1

Exam item: Kindly provide the recorded test outcome for the following molecule: Cc1cc(C)c(S(=O)(=O)Oc2ccccc2[N+](=O)[O-])c(C)c1
Marked response: label 0

Exam item: Kindly provide the recorded test outcome for the following molecule: O=C(/C=C/c1ccccc1)c1ccc(O)c(CN2CCN(c3cc4c(cc3F)c(=O)c(C(=O)O)cn4C3CC3)CC2)c1
Marked response: label 0

Exam item: Kindly provide the recorded test outcome for the following molecule: CC(=O)c1ccc(NCn2nc(-c3ccccc3O)oc2=S)cc1
Marked response: label 0

Exam item: Kindly provide the recorded test outcome for the following molecule: C=C(C)[C@@H]1CC[C@]2(c3ncc(C)o3)CC[C@]3(C)[C@H](CC[C@@H]4[C@@](C)(CCC#N)[C@H](C(=C)C)CC[C@]43C)[C@@H]12
Marked response: label 0

Exam item: Kindly provide the recorded test outcome for the following molecule: CCN(CC)CCNc1ccc(CO)c2sc3ccccc3c(=O)c12
Marked response: label 0

Exam item: Kindly provide the recorded test outcome for the following molecule: COc1ccc(S(=O)(=O)N2CCCCC2)cc1NC(=O)c1[nH]c(C)c2c1CCCCC2=O
Marked response: label 1

Exam item: Kindly provide the recorded test outcome for the following molecule: COc1cc(/C=C\c2cc(/C=C\c3ccc(O)c(OC)c3)n(C(=O)Nc3ccc(C(F)(F)F)cc3)n2)ccc1O
Marked response: label 0

====

Tested on: SK-MEL-2 melanoma
measurement protocol: NCI tumour cell line growth inhibition, 48 h
Assignment: determine reported TGI for the given compounds.

The reported value for Cc1c2ccccc2nc2[nH]c3ccncc3c12 in terms of TGI is > 100 µM

The reported value for CN1C(=O)NC2(O)c3ccccc3C(=O)C12O (centres undefined) in terms of TGI is > 100 µM

The reported value for Cc1cc(Cl)ccc1OCC(=O)Oc1c(Cl)c(Cl)c(Cl)c(Cl)c1Cl in terms of TGI is 67.7 µM

The reported value for Cc1nc(SCC(=O)Nc2ccccc2)c2sc(=S)n(-c3ccccc3)c2n1 in terms of TGI is > 10 µM

The reported value for O=c1c2ccccc2c(C=NCCNCCO)c2oc3ccccc3n12 in terms of TGI is 50.6 µM

The reported value for Cc1ccc2c(c1)C(=O)C1(C2)Cc2ccc(C)cc2C1=O in terms of TGI is > 100 µM

The reported value for NC(N)=NS(=O)(=O)c1ccc(NC(=O)c2ccc(Cl)c3c(Nc4ccc(S(=O)(=O)N=C(N)N)cc4)c4ccccc4nc23)cc1 in terms of TGI is > 100 µM

The reported value for C=CCCC12CCCC(=O)C1Sc1ccc3ccccc3c12 (centres undefined) in terms of TGI is 32.8 µM

The reported value for S=C1SC2(CCCCCC2)NC2=C1CCCCC2 in terms of TGI is 47.4 µM

The reported value for CCCC/C=C1\CCC(CN2CCOCC2)C1=O (centres undefined) in terms of TGI is 23.8 µM

The reported value for COc1cc([C@@H]2c3cc4c(cc3[C@@H](NC(=O)c3ccc(C(C)=O)cc3)C3COC(=O)[C@@H]32)OCO4)cc(OC)c1O (some centres undefined) in terms of TGI is 8.03 µM

The reported value for CCOC(=O)c1c2ccccc2n2c(=O)n(C)nnc12 in terms of TGI is > 100 µM

The reported value for CNNC1=NS(=O)(=O)c2cc(C(=O)OC)c(Cl)cc2S1 in terms of TGI is > 10 µM

The reported value for CC(=O)[CH-]C(=O)c1ccccc1.CC(=O)[CH-]C(=O)c1ccccc1.CC(C)CCCC(C)[C@H]1CCC2[C@@H]3CCC4C[C@@H]([O-])CC[C@]4(C)C3CC[C@@]21C.CC(C)CCCC(C)[C@H]1CCC2[C@@H]3CCC4C[C@@H]([O-])CC[C@]4(C)C3CC[C@@]21C.Cl.[Ti+4] (some centres undefined) in terms of TGI is > 25 µM

The reported value for Nc1nc(N)c2ncn(Cc3c(Cl)cccc3Cl)c2n1 in terms of TGI is > 100 µM

The reported value for Cc1ccc2nc(NC(=O)CSC(=S)N3CCN(Cc4ccccc4)CC3)sc2c1 in terms of TGI is > 100 µM

The reported value for C=C(C)[C@@H]1CC[C@]2(c3ncc(C)o3)CC[C@]3(C)[C@H](CC[C@@H]4[C@@](C)(CCC#N)[C@H](C(=C)C)CC[C@]43C)[C@@H]12 in terms of TGI is 33.7 µM

The reported value for O=C1c2ccccc2C(=O)c2[nH]c(=O)c(/C=N/Nc3ccc([N+](=O)[O-])cc3)nc21 in terms of TGI is 12.1 µM

The reported value for O=C1c2ccccc2C(=O)N1C/C=N/NS(=O)(=O)c1ccc(Cl)cc1 in terms of TGI is > 100 µM

====

System: HT29 colon
measurement protocol: NCI tumour cell line growth inhibition, 48 h
value type: TGI

The reported value for CCCN(CCC)C(=O)Cc1c2n(c3ccccc13)CCCc1ccccc1-2 in terms of TGI is 26 µM

The reported value for COc1ccc(/C=C/c2cc(=O)cc(/C=C/c3ccc(OC)c(O)c3)o2)cc1O in terms of TGI is 4.1 µM

The reported value for CCOC(=O)c1c(SCC#N)n(-c2ccccc2)c(=S)n(-c2ccccc2)c1=O in terms of TGI is > 100 µM

The reported value for COc1ccc(C(F)(F)F)cc1NC(=O)O/N=C(/Cl)C(C)C in terms of TGI is 53.3 µM

The reported value for COC(=O)c1c(C)cccc1C1CN=NC12Cc1c(C)cccc1C2=O (stereo not given) in terms of TGI is > 100 µM

The reported value for CC(=O)OC1CC(C)c2c1ncnc2N1CCN(C(=O)OC(C)(C)C)CC1 (stereo not given) in terms of TGI is 88.5 µM

The reported value for Cc1nnc2nc(-c3ccc(Cl)cc3Cl)cc(-c3ccc(Cl)cc3)n12 in terms of TGI is 42.3 µM

The reported value for CSc1ccc2c(cc1=O)C(NC(=O)c1cc(O)c(OC(=O)O)c(O)c1)CCc1cc(O)c(O)c(O)c1-2 (stereo not given) in terms of TGI is 40.2 µM

The reported value for N[C@H]1CCc2c1nc1c(c2-c2ccccc2)CC[C@@H]1N in terms of TGI is 26 µM

The reported value for C=C(Cl)C(Br)(CCl)CCC(Cl)C(C)C (stereo not given) (tested in a mixture with another compound) in terms of TGI is 2.75 µM

====

System: A498 renal
measurement protocol: NCI tumour cell line growth inhibition, 48 h; in the data active = GI50 below about 0.43 µM; inactive = the rest
Select the matching outcome among active, inactive

Exam item: Kindly provide the recorded test outcome for the following compound: CCC(=O)[O-].CCC(=O)[O-].N.N.N.N.[Co+3].[O-][Cl+3]([O-])([O-])[O-]
Marked response: inactive

Exam item: Kindly provide the recorded test outcome for the following compound: COc1ccc(-c2ccc(=O)oc2-c2cc(OC)c(OC)c(OC)c2)cc1O
Marked response: active

Exam item: Kindly provide the recorded test outcome for the following compound: COc1cccc2c1C(=O)c1c(O)c3c(c(O)c1C2=O)C[C@@](O)(C(=O)COC(=O)c1cccnc1)C[C@@H]3OC1CC(N)C(O)C(C)O1 (some centres undefined)
Marked response: active

Exam item: Kindly provide the recorded test outcome for the following compound: COc1ccc(-n2nc(C)c3c(Nc4ccc(NC(=O)Nc5cc(C(F)(F)F)ccc5F)cc4)ncnc32)cc1
Marked response: inactive
